- Tested on: P-gp
- TEST_METHOD_NOTES: Substrate activity at P-gp in dog MDCK cells assessed as efflux ratio
- Type: ADME, cell-based, Canis lupus familiaris
- EXPERIMENTAL_CONDITIONS: MDCK-MDR1
Let's look at some compounds and their measured efflux ratio.
PROPERTY_MEASURED: efflux ratio

> print(dat)
                                        mol  property.measured  measurement
1  C=CC(=O)NCCCC[C@H](NC(=O)Cc1ccccc1F)C(=O)N1CCN(C(=O)c2cccc3ccccc23)CC1       efflux ratio          1.3
2  C=CC(=O)NCCCC[C@H](NC(=O)Cc1ccccc1C)C(=O)N1CCN(C(=O)c2cccc3ccccc23)CC1       efflux ratio         0.93
